TEST_DESCRIPTION: Binding affinity to G-rich KRAS DNA (unknown origin) assessed as binding constant by SPR analysis
pKd: −log10 of the molar value.
MEASUREMENT_KIND: pKd

molecule=CCn1c2ccccc2c2cc(-c3nc(-c4ccc(N5CCN(C)CC5)cc4)c(-c4ccc(N5CCN(C)CC5)cc4)n3-c3ccc(OCCOCCOC(C)=O)cc3)ccc21 measurement_kind=pKd modifier_sign== value_measured=4.99
molecule="CCn1c2ccccc2c2cc(-c3nc(-c4ccc(N5CCN(C)CC5)cc4)c(-c4ccc(N5CCN(Cc6cn([C@@H]7O[C@H](CO)[C@@H](O)[C@H](O)[C@H]7O)nn6)CC5)cc4)[nH]3)ccc21 (single isomer, unassigned)" measurement_kind=pKd modifier_sign== value_measured=5.15
molecule="CCn1c2ccccc2c2cc(-c3nc(-c4ccc(N5CCN(C)CC5)cc4)c(-c4ccc(N5CCN(Cc6cn([C@@H]7O[C@H](CO)[C@H](O)[C@H](O)[C@H]7O)nn6)CC5)cc4)[nH]3)ccc21 (single isomer, unassigned)" measurement_kind=pKd modifier_sign== value_measured=5.24
molecule="CCn1c2ccccc2c2cc(-c3nc(-c4ccc(N5CCN(C)CC5)cc4)c(-c4ccc(N5CCN(C)CC5)cc4)n3-c3ccc(OCCCOC4(C)O[C@H]5O[C@H](COC(C)=O)[C@@H](OC(C)=O)[C@H](OC(C)=O)[C@H]5O4)cc3)ccc21 (single isomer, unassigned)" measurement_kind=pKd modifier_sign=< value_measured=4.70

###

TEST_DESCRIPTION: Binding affinity to G-rich HRAS DNA (unknown origin) assessed as binding constant by SPR analysis
MEASUREMENT_KIND: Kd (µM)

compound="CCn1c2ccccc2c2cc(-c3nc(-c4ccc(N5CCN(C)CC5)cc4)c(-c4ccc(N5CCN(C)CC5)cc4)n3-c3ccc(OCCCO[C@@H]4O[C@H](CO)[C@H](O)[C@H](O)[C@H]4O)cc3)ccc21 (single isomer, unassigned)" measurement_kind=Kd value_measured=16.6
compound="COc1ccc(-n2c(-c3ccc4c(c3)c3ccccc3n4Cc3cn(CCOCCO[C@@H]4O[C@H](CO)[C@@H](O)[C@H](O)[C@H]4O)nn3)nc(-c3ccc(N4CCN(C)CC4)cc3)c2-c2ccc(N3CCN(C)CC3)cc2)cc1 (single isomer, unassigned)" measurement_kind=Kd value_measured=15.5
compound="CCn1c2ccccc2c2cc(-c3nc(-c4ccc(N5CCN(C)CC5)cc4)c(-c4ccc(N5CCN(C)CC5)cc4)n3-c3ccc(OCCOCCOC4(C)O[C@H]5O[C@H](COC(C)=O)[C@@H](OC(C)=O)[C@H](OC(C)=O)[C@H]5O4)cc3)ccc21 (single isomer, unassigned)" measurement_kind=Kd value_measured=13.9
compound="CCn1c2ccccc2c2cc(-c3nc(-c4ccc(N5CCN(C)CC5)cc4)c(-c4ccc(N5CCN(C)CC5)cc4)n3-c3ccc(OCCOCCO[C@@H]4O[C@H](CO)[C@H](O)[C@H](O)[C@H]4O)cc3)ccc21 (single isomer, unassigned)" measurement_kind=Kd value_measured=14.4

###

A collection of molecules and their measured pKd
TEST_DESCRIPTION: Binding affinity to G-rich HRAS DNA (unknown origin) assessed as binding constant by SPR analysis
pKd: −log10 of the molar value.
MEASUREMENT_KIND: pKd

molecule="CCn1c2ccccc2c2cc(-c3nc(-c4ccc(N5CCN(C)CC5)cc4)c(-c4ccc(N5CCN(Cc6cn(CCOCCO[C@@H]7O[C@H](COC(C)=O)[C@@H](OC(C)=O)[C@H](OC(C)=O)[C@H]7OC(C)=O)nn6)CC5)cc4)[nH]3)ccc21 (single isomer, unassigned)" measurement_kind=pKd modifier_sign== value_measured=5.09
molecule=COc1ccc(-n2c(-c3ccc4c(c3)c3ccccc3n4Cc3cn(CCOCCO[C@@H]4O[C@H](COC(C)=O)[C@@H](OC(C)=O)[C@H](OC(C)=O)[C@H]4OC(C)=O)nn3)nc(-c3ccc(N4CCN(C)CC4)cc3)c2-c2ccc(N3CCN(C)CC3)cc2)cc1 measurement_kind=pKd modifier_sign=< value_measured=4.70
molecule=CCn1c2ccccc2c2cc(-c3nc(-c4ccc(N5CCN(C)CC5)cc4)c(-c4ccc(N5CCN(C)CC5)cc4)n3-c3ccc(OCCOCCOC(C)=O)cc3)ccc21 measurement_kind=pKd modifier_sign== value_measured=4.72
molecule="CCn1c2ccccc2c2cc(-c3nc(-c4ccc(N5CCN(C)CC5)cc4)c(-c4ccc(N5CCN(C)CC5)cc4)n3-c3ccc(OCCOCCO[C@@H]4O[C@H](CO)[C@@H](O)[C@H](O)[C@H]4NC(=O)C(F)(F)F)cc3)ccc21 (single isomer, unassigned)" measurement_kind=pKd modifier_sign== value_measured=4.70
